experiment: Photostability test, visible light (1.2 Mlux·hr) exposure; settings: Table 11, initial
Structures can show the parent of a compound that is named as a salt.
So I've got a bunch of compounds here, and I need their Initial (%) Total Related substances values.
Numbers only, in %.

compound="Cc1nc2c(O[C@H]3CCOc4cc(F)cc(F)c43)cc(C(=O)N(C)C)cc2[nH]1 [Methanesulfonate Salt (Crystalline Form)]" property_label="Initial (%) Total Related substances" value_units=% value_reported=0.265
compound="Cc1nc2c(O[C@H]3CCOc4cc(F)cc(F)c43)cc(C(=O)N(C)C)cc2[nH]1 [Hydrochloride Salt (Amorphous Form)]" property_label="Initial (%) Total Related substances" value_units=% value_reported=0.207
compound="Cc1nc2c(O[C@H]3CCOc4cc(F)cc(F)c43)cc(C(=O)N(C)C)cc2[nH]1 [Sulfate Salt]" property_label="Initial (%) Total Related substances" value_units=% value_reported=0.609
compound="Cc1nc2c(O[C@H]3CCOc4cc(F)cc(F)c43)cc(C(=O)N(C)C)cc2[nH]1 [Hemisalicylate Salt]" property_label="Initial (%) Total Related substances" value_units=% value_reported=0.208
compound="Cc1nc2c(O[C@H]3CCOc4cc(F)cc(F)c43)cc(C(=O)N(C)C)cc2[nH]1 [Hydrobromide Salt]" property_label="Initial (%) Total Related substances" value_units=% value_reported=2.173

Kindly review the next compound as well.
Entry Cc1nc2c(O[C@H]3CCOc4cc(F)cc(F)c43)cc(C(=O)N(C)C)cc2[nH]1 [Methanesulfonate Salt (Amorphous Form)] ; Initial (%) Total Related substances = 0.530
